Biological target: T1, N-terminally biotinylated recombinant human PADI4 (bio-His-PADI4) (human, UniProt Q9UM07 1-663, biotin on the N-terminal Avi-Tag (BirA))
T1 construct: human peptidylarginine deiminase IV (PADI4), residues 1-663; (vector p28BIOH-LIC, Addgene plasmid 62352); also called Bio-hPADI4 wt; PADI4_WT; source: E. coli BL21-DE3 co-expressing biotin ligase (BirA), purified (Ni-NTA, S200 SEC); not shown: Avi-Tag (biotinylated), N-terminal, kept; His6, N-terminal, kept
T1 sequence (Q9UM07 whole entry, the tested form may be a part): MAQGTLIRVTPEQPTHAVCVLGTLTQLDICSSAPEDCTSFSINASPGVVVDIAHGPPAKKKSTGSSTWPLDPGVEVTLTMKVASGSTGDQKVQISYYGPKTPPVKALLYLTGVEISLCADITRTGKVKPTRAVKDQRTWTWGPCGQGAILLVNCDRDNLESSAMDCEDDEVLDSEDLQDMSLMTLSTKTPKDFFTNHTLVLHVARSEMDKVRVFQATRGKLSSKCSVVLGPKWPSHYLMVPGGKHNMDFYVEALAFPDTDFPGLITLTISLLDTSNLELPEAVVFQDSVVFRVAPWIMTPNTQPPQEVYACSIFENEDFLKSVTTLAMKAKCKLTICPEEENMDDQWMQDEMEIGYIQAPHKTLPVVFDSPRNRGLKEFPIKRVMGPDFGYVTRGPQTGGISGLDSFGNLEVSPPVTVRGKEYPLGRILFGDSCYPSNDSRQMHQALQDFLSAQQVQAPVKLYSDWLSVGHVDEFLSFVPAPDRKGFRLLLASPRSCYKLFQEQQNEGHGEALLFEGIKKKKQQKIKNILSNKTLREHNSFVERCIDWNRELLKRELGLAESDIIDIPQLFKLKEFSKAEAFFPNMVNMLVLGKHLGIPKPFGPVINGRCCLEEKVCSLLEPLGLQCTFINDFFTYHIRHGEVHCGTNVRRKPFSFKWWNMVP
Assay: SPR; single cycle kinetics, Biacore T200 or S200; Bio-His-PADI4 captured on a Biotin CAPture chip (~2000 RU), peptide as analyte; 50 mM HEPES pH 7.5, 150 mM NaCl, 2 mM DTT, 0.05% Tween-20, 0.1% DMSO, 10 mM CaCl2; 25 °C; 1:1 binding model
Conditions: both partners purified
Consider the following binders; for each one, report its Kd.

In: Consider the binder YTLWTVLVVICCG (not fully specified; D-tyrosine at position 1; cyclised via a thioether bond between the N-terminus (chloroacetylated) and the cysteine side chain (the cysteine marked C(S-), Cys11 from the letters); C-terminal amide, cyclic peptide from RaPID selection 2 (0 mM CaCl2); source: synthetic peptide (Fmoc solid-phase synthesis, HPLC purified)) [PADI4_8] and give its recorded Kd.
Out: > 2000 nM

In: Consider the binder YFYRIGFWYPNYQCG (not fully specified; D-tyrosine at position 1; cyclised via a thioether bond between the N-terminus (chloroacetylated) and the cysteine side chain (Cys14, from the letters); C-terminal amide, cyclic peptide from RaPID selection 1 (10 mM CaCl2); also called PAD4_1; source: synthetic peptide (Fmoc solid-phase synthesis, HPLC purified)) [PADI4_1] and give its recorded Kd.
Out: 205 nM

In: Consider the binder YAQWYIWVLLCG (not fully specified; D-tyrosine at position 1; cyclised via a thioether bond between the N-terminus (chloroacetylated) and the cysteine side chain (Cys11, from the letters); C-terminal amide, cyclic peptide from RaPID selection 2 (0 mM CaCl2); source: synthetic peptide (Fmoc solid-phase synthesis, HPLC purified)) [PADI4_9] and give its recorded Kd.
Out: > 2000 nM

In: Consider the binder YLVLTIRLVLCG (not fully specified; D-tyrosine at position 1; cyclised via a thioether bond between the N-terminus (chloroacetylated) and the cysteine side chain (Cys11, from the letters); C-terminal amide, cyclic peptide from RaPID selection 1 (10 mM CaCl2); source: synthetic peptide (Fmoc solid-phase synthesis, HPLC purified)) [PADI4_6] and give its recorded Kd.
Out: > 2000 nM

In: Consider the binder YPWEISVWLLYCG (not fully specified; D-tyrosine at position 1; cyclised via a thioether bond between the N-terminus (chloroacetylated) and the cysteine side chain (Cys12, from the letters); C-terminal amide, cyclic peptide from RaPID selection 2 (0 mM CaCl2); source: synthetic peptide (Fmoc solid-phase synthesis, HPLC purified)) [PADI4_10] and give its recorded Kd.
Out: > 2000 nM

In: Consider the binder YHRLIVVIYVCG (not fully specified; D-tyrosine at position 1; cyclised via a thioether bond between the N-terminus (chloroacetylated) and the cysteine side chain (Cys11, from the letters); C-terminal amide, cyclic peptide from RaPID selection 1 (10 mM CaCl2); source: synthetic peptide (Fmoc solid-phase synthesis, HPLC purified)) [PADI4_4] and give its recorded Kd.
Out: > 2000 nM

In: Consider the binder YYPKGSWGYKLFCG (not fully specified; D-tyrosine at position 1; cyclised via a thioether bond between the N-terminus (chloroacetylated) and the cysteine side chain (Cys13, from the letters); C-terminal amide, cyclic peptide from RaPID selection 2 (0 mM CaCl2); also called PAD4_7; source: synthetic peptide (Fmoc solid-phase synthesis, HPLC purified)) [PADI4_7] and give its recorded Kd.
Out: 39 nM

In: Consider the binder YATPWLIVVLCG (not fully specified; D-tyrosine at position 1; cyclised via a thioether bond between the N-terminus (chloroacetylated) and the cysteine side chain (Cys11, from the letters); C-terminal amide, cyclic peptide from RaPID selection 1 (10 mM CaCl2); source: synthetic peptide (Fmoc solid-phase synthesis, HPLC purified)) [PADI4_5] and give its recorded Kd.
Out: > 2000 nM
